Known solubility (mole fraction) of a selection of molecules
Experimental conditions: in cyclohexane, 298.15 K

| Smiles text | solubility (mole fraction) |
| --- | --- |
| CCCCCCCC[n+]1ccn(C)c1.O=[N+]([O-])[O-] | 0.000901 |
| CCCCCC[n+]1ccn(C)c1.O=[N+]([O-])[O-] | 0.000357 |

* * *

Experimental conditions: in cyclohexane, 328.15 K
Outcome measure: solubility (mole fraction)

| Smiles text | Readout number |
| --- | --- |
| CCCCCCCC[n+]1ccn(C)c1.O=[N+]([O-])[O-] | 0.00212 |
| CCCCCC[n+]1ccn(C)c1.O=[N+]([O-])[O-] | 0.000751 |
